System: HEK293T
Assay: Specificity: mammalian cell cytotoxicity / inhibition of bacteria growth (CC50/IC50)
Conditions: IC50 vs A. baumannii HUMC1; RPMI + 50% serum
Below is a list of entries, each paired with its recorded Specificity HEK293T (CC50/IC50) value.
Readout Label: Specificity HEK293T (CC50/IC50)

query_smiles=CO[C@H]1/C=C/O[C@@]2(C)Oc3c(C)c(O)c4c(O)c(c(/C=N/N=C/N5CCCCC5)c(O)c4c3C2=O)NC(=O)/C(C)=C\C=C\[C@H](C)[C@H](O)[C@@H](C)[C@@H](O)[C@@H](C)[C@H](OC(C)=O)[C@@H]1C subject_of_test=HEK293T observed_result=1.545
query_smiles=CO[C@H]1/C=C/O[C@@]2(C)Oc3c(C)c(O)c4c(O)c(cc(O)c4c3C2=O)NC(=O)/C(C)=C\C=C\[C@H](C)[C@H](O)[C@@H](C)[C@@H](O)[C@@H](C)[C@H](OC(C)=O)[C@@H]1C subject_of_test=HEK293T observed_result=0.383
query_smiles=CO[C@H]1/C=C/O[C@@]2(C)Oc3c(C)c(O)c4c(O)c(c5c(nc6cc(C)ccn65)c4c3C2=O)NC(=O)/C(C)=C\C=C\[C@H](C)[C@H](O)[C@@H](C)[C@@H](O)[C@@H](C)[C@H](OC(C)=O)[C@@H]1C subject_of_test=HEK293T observed_result=31.517
query_smiles=CO[C@H]1/C=C/O[C@@]2(C)Oc3c(C)c(O)c4c(O)c(c(/C=N/N5CCN(C6CCCC6)CC5)c(O)c4c3C2=O)NC(=O)/C(C)=C\C=C\[C@H](C)[C@H](O)[C@@H](C)[C@@H](O)[C@@H](C)[C@H](OC(C)=O)[C@@H]1C subject_of_test=HEK293T observed_result=3.148
query_smiles=CO[C@H]1/C=C/O[C@@]2(C)Oc3c(C)c(O)c4c(=O)c(c5oc6cc(N7CCN(CC(C)C)CC7)cc(O)c6nc-5c4c3C2=O)NC(=O)/C(C)=C\C=C\[C@H](C)[C@H](O)[C@@H](C)[C@@H](O)[C@@H](C)[C@H](OC(C)=O)[C@@H]1C subject_of_test=HEK293T observed_result=4.055
query_smiles=CO[C@H]1/C=C/O[C@@]2(C)Oc3c(C)c(O)c4c(O)c(c(/C=N/N5CCN(C)CC5)c(O)c4c3C2=O)NC(=O)/C(C)=C\C=C\[C@H](C)[C@H](O)[C@@H](C)[C@@H](O)[C@@H](C)[C@H](OC(C)=O)[C@@H]1C subject_of_test=HEK293T observed_result=6.256
query_smiles=CO[C@H]1/C=C/O[C@@]2(C)Oc3c(C)c([O-])c4c(O)c(cc(O)c4c3C2=O)NC(=O)/C(C)=C\C=C\[C@H](C)[C@H](O)[C@@H](C)[C@@H](O)[C@@H](C)[C@H](OC(C)=O)[C@@H]1C.[Na+] subject_of_test=HEK293T observed_result=1.000
query_smiles=CO[C@H]1/C=C/O[C@@]2(C)Oc3c(C)c(O)c4c(c3C2=O)C2=NC3(CCN(CC(C)C)CC3)NC2=C(NC(=O)/C(C)=C\C=C\[C@H](C)[C@H](O)[C@@H](C)[C@@H](O)[C@@H](C)[C@H](OC(C)=O)[C@@H]1C)C4=O subject_of_test=HEK293T observed_result=97331.320

Source listed as patent US20230381157A1.
